Reference for the values: ChEMBL document CHEMBL1926511

Assay: Half life in Sprague-Dawley rat at 3.5 mg/kg, iv
Assay type: ADME, organism-based
Design: dose 3.5 mg/kg, route intravenous
Settings: in vivo
QUANTITY: half-life (h)
# number only, unit h dropped from output

Data request: # lookup: half-life of "COc1ccc2ncc(F)c([C@@H](O)CN3CCC(NCc4cc5c(cn4)OCCO5)CC3)c2n1"
Data returned: 2.5

###

Tested on: Staphylococcus aureus
Assay: Antibacterial activity against Staphylococcus aureus WCUH 29 after 18 to 24 hrs by broth microdilution method
Assay type: functional
// MIC lookup, one value per entry
# number only, unit µg/mL dropped from output

COc1ccc2ncc(F)c(CCN3CC[C@H](NCc4cc5c(cn4)OCCO5)[C@@H](O)C3)c2n1 :: 0.01
COc1ccc2nccc([C@@H](O)CN3CCC(NCc4cc5c(cn4)OCCO5)CC3)c2n1 :: 0.06
COc1ccc2ncc(F)c(CCN3CCC(NCc4cc5c(cn4)OCCO5)CC3)c2c1 :: 0.01
COc1ccc2ncc(F)c(CCN3CC[C@H](NCc4cc5c(cn4)OCCO5)[C@H](O)C3)c2n1 :: 0.03

Data request: # lookup: MIC of "COc1ccc2ncc(F)c(CCN3CCC(NCc4cc5c(cn4)OCCO5)CC3)c2n1"
Data returned: 0.01
